TARGET OR TEST SYSTEM: human MCHR1 (Homo sapiens)
Construct: The full-length cDNA for human MCHR1 was cloned from a human adult brain cDNA library; expressed in transfected cells; host or cells: AV12 cells previously transfected with Gα15
Sequence (Q99705 whole entry): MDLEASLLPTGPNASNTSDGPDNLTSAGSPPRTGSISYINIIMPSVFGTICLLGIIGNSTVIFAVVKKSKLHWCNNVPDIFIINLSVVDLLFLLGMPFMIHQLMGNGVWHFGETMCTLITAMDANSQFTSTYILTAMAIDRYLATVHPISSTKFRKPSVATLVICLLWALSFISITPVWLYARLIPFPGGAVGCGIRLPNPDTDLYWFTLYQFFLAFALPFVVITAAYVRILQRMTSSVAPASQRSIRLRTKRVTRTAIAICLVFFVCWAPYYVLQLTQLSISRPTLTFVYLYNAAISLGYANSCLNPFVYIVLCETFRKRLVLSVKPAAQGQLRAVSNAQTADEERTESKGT
METHOD SUMMARY: Inhibition of MCH-stimulated GTPγ35S binding to clone 43 membranes (functional antagonism)
Assay type: biochemical
CONDITION INFO: inhibition of GTPγ35S binding stimulated by 40 nM MCH (about EC90), Kb from IC50 by modified Cheng-Prusoff (Leff and Dougal), tested in duplicate
QUANTITY NAME: Kb (nM)

Some solved entries appear below for comparison.
c1ccc(OCCSCc2nnc(-c3ccc(OCCN4CCCCC4)cc3)o2)cc1 [drawing 45] :: 19.8
O=C(NCCN1CCCCC1)Nc1ccc(-c2nnc(CSCCOc3ccccc3)o2)cc1 [drawing 42] :: 14.7

(1) CN(C)CCNC(=O)Nc1ccc(-c2nnc(CSCCOc3ccccc3)o2)cc1
(2) CN(C)CCCOc1ccc(-c2nnc(CSCc3cc4ccccc4o3)o2)cc1
Q) Hi, I'm comparing two records. Which one has the lower Kb, 1 or 2 ? The response must carry the label of the picked entry.
A) 1
(1: 16.2 nM, 2: 35.4 nM)
